Taken from paper PMC5540273.

So I've got a bunch of molecules here, and I need their %Inh values.
# System: CLK4;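 also: KINOMEscan kinase panel screen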
# Assay context: concentration: 1 μM, replicates: in singlicate; n = 1
Numbers only, in %.

{"columns": ["Molecule", "%Inh, %"],
 "data": [
  ["COC(=O)c1c(-c2ccccc2)c2cc(Cl)ccc2c(=O)n1Cc1ccc(S(C)(=O)=O)cc1", 10],
  ["Cc1ccc(NC(=O)c2cccc(C#N)c2)cc1-c1ccc(C(=O)Nc2ccncc2)cc1 [GSK1398463]", 24],
  ["CNc1nccc(-c2c(-c3ccc(F)cc3)ncn2C2CCN(C)CC2)n1 [SB-222903]", 0],
  ["CNc1nccc(-c2c(-c3ccc(F)cc3)ncn2CCCN2CCOCC2)n1 [SB-222516]", 3],
  ["FC(F)(F)c1cc(Nc2nccc(-c3c(-c4ccc(Cl)cc4)nn4ncccc34)n2)ccc1Cl [GW829351]", 0]
]}

State the recorded %Inh for every item in the following list.
1. CN1CCC(n2cnc(-c3ccc(F)cc3)c2-c2ccnc(NC3CCNCC3)n2)CC1 [SB-229482]
2. Fc1cccc(COc2ccc(Nc3ncnc4cc[nH]c34)cc2Cl)c1
3. Cl.Cn1ccc(-c2cccc(Nc3ccnc4cc(-c5nccs5)ccc34)c2)n1 [GW525701]

Reply |
1. 9
2. 0
3. 37
